Data credit: the supplement of paper PMC10627819

test system: S. aureus DSM 20231; assay: fitness (endpoint OD595 vs no drug) (fraction); higher = more growth; details: first compound 1.5 µg/mL; partner 0.0625 µg/mL;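 note: OD595 on entry to stationary phase over no-drug wells; at most 1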
observable: fitness
Form rule: numeric answer, no unit written next to it.

Query: State, in one line, measured fitness of N[C@@H]1CONC1=O [Cycloserine D] + CO[C@@]12[C@H](COC(N)=O)C3=C(C(=O)C(C)=C(N)C3=O)N1C[C@@H]1N[C@@H]12 [Mitomycin C]
Result: 0.513

Query: State, in one line, measured fitness of O=C(N[C@H](CO)[C@H](O)c1ccc([N+](=O)[O-])cc1)C(Cl)Cl [Chloramphenicol] + CC1=C\[C@@H](O)CC(=O)Cc2nc(co2)C(=O)N2CCC=C2C(=O)O[C@H](C(C)C)[C@H](C)/C=C/C(=O)NC\C=C\1 [Virginiamycin M1]
Result: 0.555

Query: State, in one line, measured fitness of O=C(N[C@H](CO)[C@H](O)c1ccc([N+](=O)[O-])cc1)C(Cl)Cl [Chloramphenicol] + Cc1onc(-c2ccccc2)c1C(=O)N[C@@H]1C(=O)N2[C@@H]1SC(C)(C)[C@@H]2C(=O)O [Oxacillin]
Result: 0.478

Query: State, in one line, measured fitness of N[C@@H]1CONC1=O [Cycloserine D] + Cc1onc(-c2ccccc2)c1C(=O)N[C@@H]1C(=O)N2[C@@H]1SC(C)(C)[C@@H]2C(=O)O [Oxacillin]
Result: 0.494

----------
test system: S. pneumoniae D39V; experiment: fitness (endpoint OD595 vs no drug) (fraction); higher = more growth; conditions: first compound 0.03125 µg/mL; partner 1 µg/mL; one replicate
observable: fitness

Query: State, in one line, measured fitness of CC[C@H]1OC(=O)[C@H](C)[C@@H](O[C@H]2C[C@@](C)(OC)[C@@H](O)[C@H](C)O2)[C@H](C)[C@@H](O[C@@H]2O[C@H](C)C[C@H](N(C)C)[C@H]2O)[C@](C)(OC)C[C@@H](C)C(=O)[C@H](C)[C@@H](O)[C@]1(C)O [Clarithromycin] + COc1ccc(C[C@H](N)C(=O)N[C@H]2[C@@H](O)[C@H](n3cnc4c(N(C)C)ncnc43)O[C@@H]2CO)cc1 [Puromycin]
Result: 0.676

Query: State, in one line, measured fitness of CC[C@H]1OC(=O)[C@H](C)[C@@H](O[C@H]2C[C@@](C)(OC)[C@@H](O)[C@H](C)O2)[C@H](C)[C@@H](O[C@@H]2O[C@H](C)C[C@H](N(C)C)[C@H]2O)[C@](C)(OC)C[C@@H](C)C(=O)[C@H](C)[C@@H](O)[C@]1(C)O [Clarithromycin] + CC1=C(C(=O)O)N2C(=O)[C@@H](NC(=O)[C@H](N)c3ccccc3)[C@H]2SC1 [Cephalexin]
Result: 0.236

Query: State, in one line, measured fitness of CC[C@H]1OC(=O)[C@H](C)[C@@H](O[C@H]2C[C@@](C)(OC)[C@@H](O)[C@H](C)O2)[C@H](C)[C@@H](O[C@@H]2O[C@H](C)C[C@H](N(C)C)[C@H]2O)[C@](C)(OC)C[C@@H](C)C(=O)[C@H](C)[C@@H](O)[C@]1(C)O [Clarithromycin] + COc1cccc2c1C(=O)c1c(O)c3c(c(O)c1C2=O)C[C@@](O)(C(=O)CO)C[C@@H]3O[C@H]1C[C@H](N)[C@H](O)[C@H](C)O1 [Doxorubicin]
Result: 0.608

Query: State, in one line, measured fitness of CC[C@H]1OC(=O)[C@H](C)[C@@H](O[C@H]2C[C@@](C)(OC)[C@@H](O)[C@H](C)O2)[C@H](C)[C@@H](O[C@@H]2O[C@H](C)C[C@H](N(C)C)[C@H]2O)[C@](C)(OC)C[C@@H](C)C(=O)[C@H](C)[C@@H](O)[C@]1(C)O [Clarithromycin] + CC1=C\[C@@H](O)CC(=O)Cc2nc(co2)C(=O)N2CCC=C2C(=O)O[C@H](C(C)C)[C@H](C)/C=C/C(=O)NC\C=C\1 [Virginiamycin M1]
Result: 0.719
